Listed next: entries and their corresponding tissue uptake at 72 h.
Assay: in vivo
Set-up: species or system mice
Settings: male, NODSCID 1L2RγKO, mouse, iv, total radioactivity, Liver uptake
Write the value in %ID/g as a bare number.

-- ask Item O=C(O)CCC[C@H](NC(=O)N[C@@H](CCCCNC(=O)[C@H](Cc1c2ccccc2cc2ccccc12)NC(=O)[C@H]1CC[C@H](CNC(=O)CN2CCN(CC(=O)O)CCN(CC(=O)O)CCN(CC(=O)O)CC2)CC1)C(=O)O)C(=O)O [177Lu-HTK03149, metal not drawn] : provide tissue uptake at 72 h
-- reply 0.13

Continue with the next compound.
-- ask Item COc1ccc(CCCC(=O)NCC(=O)N[C@@H](CCCCNC(=O)CN2CCN(CC(=O)O)CCN(CC(=O)O)CCN(CC(=O)O)CC2)C(=O)NC[C@H]2CC[C@H](C(=O)N[C@@H](Cc3c4ccccc4cc4ccccc34)C(=O)NCCCC[C@H](NC(=O)N[C@@H](CSCC(=O)O)C(=O)O)C(=O)O)CC2)cc1 [177Lu-HTK04048, metal not drawn] : provide tissue uptake at 72 h
-- reply 0.26
